Where do these numbers come from? They come from ChEMBL document CHEMBL4000174.

Collected pIC50 values appear next to each entry.
# System: BGC-823
# experimentSummary: Antiproliferative activity against human BGC823 cells after 96 hrs by MTT assay
# Assay type: functional, cell-based
# setupConditions: BGC-823, 96 h
Scale note: pIC50 = -log10(concentration in M).

CC[C@@]1(OC(=O)Cn2cc(F)c(=O)[nH]c2=O)C(=O)OCc2c1cc1n(c2=O)Cc2cc3c([N+](=O)[O-])cccc3nc2-1; 7.77

For the compound CCc1c2c(nc3ccccc13)-c1cc3c(c(=O)n1C2)COC(=O)[C@@]3(CC)OC(=O)Cn1cc(I)c(=O)[nH]c1=O , the measured pIC50 on BGC-823 was 5.59

For the compound CCc1c2c(nc3ccccc13)-c1cc3c(c(=O)n1C2)COC(=O)[C@@]3(CC)OC(=O)Cn1cc(F)c(=O)[nH]c1=O , the measured pIC50 on BGC-823 was 7.49

For the compound CC[C@@]1(O)C(=O)OCc2c1cc1n(c2=O)Cc2cc3c(CN(C)C)c(O)ccc3nc2-1 , the measured pIC50 on BGC-823 was 7.11

For the compound CC[C@@]1(OC(=O)Cn2ccc(=O)[nH]c2=O)C(=O)OCc2c1cc1n(c2=O)Cc2cc3c([N+](=O)[O-])cccc3nc2-1 , the measured pIC50 on BGC-823 was 7.77

For the compound CC[C@@]1(OC(=O)Cn2cc(F)c(=O)[nH]c2=O)C(=O)OCc2c1cc1n(c2=O)Cc2cc3ccccc3nc2-1 , the measured pIC50 on BGC-823 was 7.19

For the compound CC[C@@]1(OC(=O)Cn2cc(Br)c(=O)[nH]c2=O)C(=O)OCc2c1cc1n(c2=O)Cc2cc3ccccc3nc2-1 , the measured pIC50 on BGC-823 was 7.80
